# ASSAY_INFO: Human HepG2 cell viability assay in 384 well format
# Type: toxicity, cell-based
# Set-up: dose 125 nL, time 70.5 hour; concentration not given beside the values
# RUN_PARAMETERS: HepG2 cells, read-out: Inhibition
Can you tell me cytotoxicity at 70.5 h for the items I'm about to list?
Please answer using the number first and the unit second.

The following compounds have reported results that may help.
COMPOUND: O=C(C1CCOCC1)N1CCc2onc(COc3cccnc3)c2C1
cytotoxicity at 70.5 h: 0.0469%
--
COMPOUND: Cc1cc(C(=O)NCC(=O)N2CCOCC2)nn1C(C)(C)C
cytotoxicity at 70.5 h: -17.2%
--
COMPOUND: COCCNC(=O)CN(C)C(C)c1nc(C)no1 (stereo not given)
cytotoxicity at 70.5 h: 3.14%
--
COMPOUND: O=C(CSC1CCCC1)N1CCN(C(=O)C2CC2c2cccs2)CC1 (stereo not given)
cytotoxicity at 70.5 h: 33.2%

Here's the next entry for you.
Please give measured cytotoxicity at 70.5 h of the following entry: "CC1(C)CC(=O)c2cnc3nc(N4CCOCC4)nc(O)c3c2C1" -1.04%

FYI, the data here is from ChEMBL document CHEMBL3507680.
